- Tested on: HSkMC
- assay_method_text: cytotoxicity call (relative viability < 0.9)
- protocol_conditions: 10 µM
Hit rate of the full screen: of about 39,000 compounds, about 1,500 (3.8%) were called active. Only a selection was taken, and actives are over-represented in it overall.
Allowed answers: 1 for active, 0 for inactive

Example entries begin here.
[[record]]
smiles_text = "C[C@@H]1CN([C@H](C)CO)C(=O)Cc2cc(NC(=O)Nc3ccc(C(F)(F)F)cc3)ccc2O[C@H]1CN(C)Cc1ccc(C(=O)O)cc1"
class_name = 0

[[record]]
smiles_text = "C[C@H](CO)N1C[C@H](C)[C@H](CN(C)Cc2ccc(C(F)(F)F)cc2)Oc2ccc(NC(=O)Nc3ccc(C(F)(F)F)cc3)cc2CC1=O"
class_name = 1

[[record]]
smiles_text = "C[C@H]1CN([C@@H](C)CO)C(=O)Cc2cc(NC(=O)Nc3ccc(C(F)(F)F)cc3)ccc2O[C@H]1CN(C)Cc1ccc(C(F)(F)F)cc1"
class_name = 1

[[record]]
smiles_text = "C[C@H](CO)N1C[C@H](C)[C@@H](CN(C)Cc2ccccc2)OCCCC[C@H](C)Oc2ccc(NC(=O)c3ccncc3)cc2C1=O"
class_name = 0

[[record]]
smiles_text = "C[C@H](CO)N1C[C@H](C)[C@@H](CN(C)Cc2ccc(C(=O)O)cc2)Oc2ccc(NC(=O)Nc3ccc(C(F)(F)F)cc3)cc2CC1=O"
class_name = 0


Okay, now this compound:
Query block: Hey, what did the test say about C[C@H]1CN([C@@H](C)CO)C(=O)Cc2cc(NC(=O)Nc3ccc(C(F)(F)F)cc3)ccc2O[C@H]1CN(C)Cc1ccc(C(=O)O)cc1 ?
Result block: 0

----------
- Test system: HSkMC
- assay_method_text: cytotoxicity call (relative viability < 0.9)
- protocol_conditions: 10 µM
Hit rate of the full screen: of about 39,000 compounds, about 1,500 (3.8%) were called active. This excerpt belongs to a sample that is enriched for actives.
Allowed answers: label 1 = active, label 0 = inactive

[[record]]
smiles_text = "C[C@@H]1CCCCO[C@@H](CN(C)CC2CC2)[C@@H](C)CN([C@H](C)CO)C(=O)c2cc(NC(=O)Nc3cccc4ccccc34)ccc2O1"
class_name = "label 0"

[[record]]
smiles_text = "C[C@@H]1CCCCO[C@@H](CN(C)Cc2ccc(Cl)c(Cl)c2)[C@@H](C)CN([C@H](C)CO)C(=O)c2cc(NC(=O)CCCN(C)C)ccc2O1"
class_name = "label 0"

[[record]]
smiles_text = "C[C@@H]1CCCCO[C@H](CN(C)CC2CCCCC2)[C@@H](C)CN([C@H](C)CO)C(=O)c2cc(NC(=O)Nc3cccc4ccccc34)ccc2O1"
class_name = "label 1"

[[record]]
smiles_text = "C[C@@H]1CCCCO[C@@H](CN(C)CC2CC2)[C@H](C)CN([C@@H](C)CO)C(=O)c2cc(NC(=O)Nc3cccc4ccccc34)ccc2O1"
class_name = "label 0"

[[record]]
smiles_text = "C[C@@H]1CCCCO[C@@H](CN(C)CC2CCCCC2)[C@@H](C)CN([C@H](C)CO)C(=O)c2cc(NC(=O)Nc3cccc4ccccc34)ccc2O1"
class_name = "label 1"


Query block: Hey, what did the test say about C[C@H]1CCCCO[C@H](CN(C)CC2CCCCC2)[C@@H](C)CN([C@@H](C)CO)C(=O)c2cc(NC(=O)Nc3cccc4ccccc34)ccc2O1 ?
Result block: label 1

----------
- Test system: HSkMC
- assay_method_text: cytotoxicity call (relative viability < 0.9)
- protocol_conditions: 10 µM
Among all 39,000 compounds or so, about 1,500 (3.8%) were called active. Many of the other results were omitted from the sample, so actives are more common in it than they were.
Allowed answers: 1.0 (active), 0.0 (inactive)

[[record]]
smiles_text = "C[C@H]1CN([C@@H](C)CO)C(=O)c2cc(NC(=O)Cn3cnnn3)ccc2O[C@@H]1CN(C)C(=O)NC1CCCCC1"
class_name = 0.0

[[record]]
smiles_text = "Cc1csc(-c2nnc(Nc3ccc(Oc4ncccc4-c4ccnc(N)n4)cc3)c3ccccc23)c1"
class_name = 1.0

[[record]]
smiles_text = "C[C@@H]1CN([C@@H](C)CO)C(=O)c2cc(NC(=O)c3ccncc3)ccc2O[C@H]1CN(C)Cc1ccc(-c2ccccc2)cc1"
class_name = 0.0

[[record]]
smiles_text = "COc1ccc(S(=O)(=O)Nc2ccc3c(c2)C(=O)N([C@@H](C)CO)C[C@H](C)[C@@H](CN(C)C(=O)Nc2ccc4c(c2)OCO4)OCCCC[C@H](C)O3)cc1"
class_name = 0.0

[[record]]
smiles_text = "COCC(=O)N1C[C@@H](C)[C@@H](OC)CN(C)C(=O)c2ccc(NC(=O)Nc3cccc(F)c3)cc2OC[C@@H]1C"
class_name = 0.0

[[record]]
smiles_text = "C[C@@H]1CN([C@H](C)CO)C(=O)c2cc(NS(=O)(=O)c3ccc(Cl)cc3)ccc2O[C@@H](C)CCCCO[C@@H]1CN(C)Cc1ccc(Cl)c(Cl)c1"
class_name = 0.0


Query block: Hey, what did the test say about C[C@@H]1CCCCO[C@@H](CN(C)Cc2ccc(Cl)c(Cl)c2)[C@@H](C)CN([C@H](C)CO)C(=O)c2cc(NS(=O)(=O)c3ccc(Cl)cc3)ccc2O1 ?
Result block: 0.0

Query block: Hey, what did the test say about C[C@@H]1CCCCO[C@@H](CN(C)Cc2ccc(C(F)(F)F)cc2)[C@@H](C)CN([C@@H](C)CO)C(=O)c2cc(NS(=O)(=O)c3ccccc3)ccc2O1 ?
Result block: 0.0

----------
- System: HSkMC
- assay_method_text: cytotoxicity call (relative viability < 0.9)
- protocol_conditions: 10 µM
Hit rate of the full screen: of about 39,000 compounds, about 1,500 (3.8%) were called active. This excerpt belongs to a sample that is enriched for actives.
property_label: cytotoxicity call

[[record]]
smiles_text = "COc1ccc(S(=O)(=O)Nc2ccc3c(c2)C(=O)N([C@H](C)CO)C[C@H](C)[C@H](CN(C)Cc2ccc(C(=O)Nc4ccccc4N)cc2)OCCCC[C@@H](C)O3)cc1"
test_result = "inactive"

[[record]]
smiles_text = "C[C@@H]1CN([C@@H](C)CO)C(=O)Cc2cc(NC(=O)C3CC3)ccc2O[C@H]1CN(C)Cc1ccc2c(c1)OCO2"
test_result = "inactive"

[[record]]
smiles_text = "C[C@@H]1CCCCO[C@H](CN(C)Cc2ccncc2)[C@H](C)CN([C@@H](C)CO)C(=O)c2cc(NC(=O)Nc3ccc(F)cc3)ccc2O1"
test_result = "inactive"


----------
- System: HSkMC
- assay_method_text: cytotoxicity call (relative viability < 0.9)
- protocol_conditions: 10 µM
Out of some 39,000 compounds screened, about 1,500 (3.8%) were called active. The sample holds actives, similar compounds and a random draw of the others, so the mix is not that of the screen.
Allowed answers: Y = active, N = inactive

Example entries begin here.
[[record]]
smiles_text = "C[C@H]1CN([C@@H](C)CO)C(=O)c2cccc(NC(=O)c3nc4ccccc4s3)c2O[C@@H]1CN(C)C(=O)Nc1cccc2ccccc12"
class_name = "N"

[[record]]
smiles_text = "C[C@H]1CN([C@@H](C)CO)C(=O)c2cccc(NC(=O)Nc3cccc4ccccc34)c2O[C@@H]1CN(C)C(=O)Nc1ccccc1"
class_name = "Y"

[[record]]
smiles_text = "C[C@H](CO)N1C[C@H](C)[C@@H](CN(C)C(=O)Nc2ccc(F)cc2)Oc2c(NC(=O)Nc3cccc4ccccc34)cccc2C1=O"
class_name = "N"

[[record]]
smiles_text = "C[C@@H]1CN([C@H](C)CO)C(=O)c2cccc(NC(=O)c3nc4ccccc4s3)c2O[C@@H]1CN(C)C(=O)Nc1cccc2ccccc12"
class_name = "N"

[[record]]
smiles_text = "C[C@@H]1CN([C@@H](C)CO)C(=O)c2cccc(NC(=O)c3nc4ccccc4s3)c2O[C@H]1CN(C)S(=O)(=O)c1cn(C)cn1"
class_name = "N"


Query block: Hey, what did the test say about C[C@H](CO)N1C[C@H](C)[C@@H](CN(C)C(=O)Nc2cccc3ccccc23)Oc2c(NC(=O)c3nc4ccccc4s3)cccc2C1=O ?
Result block: Y

Query block: Hey, what did the test say about Cc1noc(C)c1NC(=O)Nc1ccc2c(c1)C(=O)N([C@@H](C)CO)C[C@H](C)[C@H](CN(C)C(=O)Nc1ccc(C(F)(F)F)cc1)OCCCC[C@H](C)O2 ?
Result block: N

----------
- Test system: HSkMC (human skeletal muscle cells)
- assay_method_text: cytotoxicity call (relative viability < 0.9)
- protocol_conditions: 10 µM
The campaign covered roughly 39,000 compounds. About 1,500 (3.8%) were called active. What follows is part of a selection rich in actives, with near analogues and random picks from the rest.
Allowed answers: T for active, F for inactive

Example entries begin here.
[[record]]
smiles_text = "C[C@H](CO)N1C[C@H](C)[C@@H](CN(C)C(=O)c2ccc3c(c2)OCO3)Oc2cc(-c3cncnc3)ccc2S1(=O)=O"
class_name = "F"

[[record]]
smiles_text = "Cc1noc(C)c1S(=O)(=O)N(C)C[C@H]1OCCCC[C@H](C)Oc2ccc(NS(=O)(=O)c3cn(C)cn3)cc2C(=O)N([C@H](C)CO)C[C@@H]1C"
class_name = "F"

[[record]]
smiles_text = "CCS(=O)(=O)NCC[C@@H]1CC[C@@H](NC(=O)Cc2ccccn2)[C@H](CO)O1"
class_name = "F"

[[record]]
smiles_text = "COc1ccccc1S(=O)(=O)N[C@H]1C=C[C@H](CC(=O)N2CCN(C)CC2)O[C@@H]1CO"
class_name = "F"

[[record]]
smiles_text = "COc1cccc(C#Cc2cnc3c(c2)C(=O)N([C@H](C)CO)C[C@@H](C)[C@H](CN(C)C(=O)C2CCOCC2)O3)c1"
class_name = "F"

[[record]]
smiles_text = "Cc1ccc(S(=O)(=O)Nc2ccc3c(c2)C(=O)N([C@@H](C)CO)C[C@H](C)[C@H](CN(C)Cc2ccc(C(=O)O)cc2)OCCCC[C@@H](C)O3)cc1"
class_name = "F"


Okay, now this compound:
Query block: Hey, what did the test say about C=CC[C@H](CC(=O)N[C@@H](CO)Cc1ccccc1)C(=O)N[C@@H](COC(=O)[C@@H](CC=C)Cc1ccc(F)cc1)Cc1c[nH]c2ccccc12 ?
Result block: F
